Origin of measurements: paper PMC6196722

# maps each entry to its Kd
system.name: SULT1B1-WT (6xHis tagged) (Homo sapiens, UniProt O43704, L145V)
Sequence (O43704 whole entry L145V): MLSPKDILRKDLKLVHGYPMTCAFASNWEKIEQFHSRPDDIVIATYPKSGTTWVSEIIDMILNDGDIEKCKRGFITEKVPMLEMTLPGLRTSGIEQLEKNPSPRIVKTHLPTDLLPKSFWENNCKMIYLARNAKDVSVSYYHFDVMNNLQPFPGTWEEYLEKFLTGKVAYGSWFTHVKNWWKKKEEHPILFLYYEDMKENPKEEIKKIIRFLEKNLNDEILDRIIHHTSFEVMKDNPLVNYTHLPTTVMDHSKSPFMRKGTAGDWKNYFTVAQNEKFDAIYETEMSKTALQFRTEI
experimental.details: intrinsic fluorescence titration
Dear colleague, please return just the value in nM, with no unit written.

- compound: "Nc1ncnc2c1ncn2[C@@H]1O[C@H](COP(=O)(O)O)[C@@H](OP(=O)(O)O)[C@H]1O"
  unit.descriptor: "nM"
  Kd: 405

Which Kd is reported with SULT1B1-WT (6xHis tagged) (Homo sapiens, UniProt O43704, L145V) for this entry: Nc1ncnc2c1ncn2[C@@H]1O[C@H](COP(=O)(O)OS(=O)(=O)O)[C@@H](OP(=O)(O)O)[C@H]1O ?
980

* * *

system.name: SULT1B1-WT (6xHis tagged) (Homo sapiens)
experimental.details: intrinsic fluorescence titration
Format: binding
measurement.type: pKd
Reminder that pKd is minus the log10 of a molar concentration.

I would be grateful if you could share the reported pKd for Nc1ncnc2c1ncn2[C@@H]1O[C@H](COP(=O)(O)OS(=O)(=O)O)[C@@H](OP(=O)(O)O)[C@H]1O .
6.06
